target: lipases, preferably HSL (Rattus norvegicus); experiment: Synthesized NBD-acylglycerides as substrates of lipases; type: biochemical
Sequence (P15304 301-1068): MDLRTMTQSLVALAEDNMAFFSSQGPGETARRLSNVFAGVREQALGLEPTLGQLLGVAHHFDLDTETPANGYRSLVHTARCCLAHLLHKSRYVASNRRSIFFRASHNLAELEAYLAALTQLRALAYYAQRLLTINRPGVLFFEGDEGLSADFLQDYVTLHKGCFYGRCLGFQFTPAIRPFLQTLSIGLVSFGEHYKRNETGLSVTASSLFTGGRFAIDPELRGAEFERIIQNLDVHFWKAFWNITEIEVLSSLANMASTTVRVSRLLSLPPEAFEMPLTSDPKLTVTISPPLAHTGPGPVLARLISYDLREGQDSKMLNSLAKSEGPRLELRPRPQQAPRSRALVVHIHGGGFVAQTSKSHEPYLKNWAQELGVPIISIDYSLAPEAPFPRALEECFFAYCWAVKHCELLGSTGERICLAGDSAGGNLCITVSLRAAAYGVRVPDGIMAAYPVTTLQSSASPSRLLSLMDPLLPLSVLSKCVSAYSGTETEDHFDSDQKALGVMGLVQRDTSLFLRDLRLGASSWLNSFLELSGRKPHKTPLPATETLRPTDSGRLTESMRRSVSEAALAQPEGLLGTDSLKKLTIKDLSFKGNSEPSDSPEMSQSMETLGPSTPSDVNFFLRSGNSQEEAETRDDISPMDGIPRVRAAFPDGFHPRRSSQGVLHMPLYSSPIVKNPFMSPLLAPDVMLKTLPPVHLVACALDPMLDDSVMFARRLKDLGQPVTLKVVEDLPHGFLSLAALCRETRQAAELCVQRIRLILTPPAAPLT
Measured property: Activity as substrate of lipases

compound="CCCCCC(=O)OCC(COC(=O)CCCCCCCCCCCNc1ccc([N+](=O)[O-])c2nonc12)OC(=O)CCCCC (stereo not drawn) [Compound (5)]" reading="decrease in activity"
compound="CCCCCCCCCCCCCCCC(=O)OCC(COC(=O)CCCCCCCCCCCNc1ccc([N+](=O)[O-])c2nonc12)OC(C)=O (stereo not drawn) [Compound (7)]" reading="decrease in activity"
compound="CC(=O)OCC(COC(=O)CCCCCCCCCCCNc1ccc([N+](=O)[O-])c2nonc12)OC(C)=O (stereo not drawn) [Compound (4)]" reading="decrease in activity"
